Overview of reported GI50 across a group of compounds:
test system: RXF 393; test: NCI tumour cell line growth inhibition, 48 h
Active and inactive are the calls of the source. No stated cut-off is given here; in the data, active = GI50 up to about 1.1 µM and inactive = higher.

Compound: O=C(CCN(CCO)CCO)Nc1ccc2c(c1)C(=O)c1ccc(NC(=O)CCN(CCO)CCO)cc1C2=O
Assayed Target: RXF 393
GI50: 4 µM (inactive)
//
Compound: COC(=O)C1(Cc2ccccc2)Cc2cc3c(cc2C1O)CCC3 (stereo not given)
Assayed Target: RXF 393
GI50: 15 µM (inactive)
//
Compound: O=C1C(Cl)=C(N2C(=O)CCC2=O)C(=O)c2ccccc21
Assayed Target: RXF 393
GI50: 18.5 µM (inactive)
//
Compound: O=C(NCC#CCO)C(F)(F)F
Assayed Target: RXF 393
GI50: > 100 µM (inactive)
//
Compound: COc1cccc(C2c3cc4c(cc3OC(Nc3ccccc3)C2C)OCO4)c1OC (stereo not given)
Assayed Target: RXF 393
GI50: 3.66 µM (inactive)
//
Compound: CN(C)CCNC(=O)c1cccc2ccc(-c3ccc(-c4ccccc4)cc3)nc12
Assayed Target: RXF 393
GI50: 2.22 µM (inactive)
//
Compound: CC(=O)OCC1OC(n2c(-c3ccc(C)cc3)cc(-c3ccco3)c(C#N)c2=S)C(OC(C)=O)C(OC(C)=O)C1OC(C)=O (stereo not given)
Assayed Target: RXF 393
GI50: 40.6 µM (inactive)
//
Compound: CC(C)C1COC(c2ccc3ccccc3c2-c2c(O[Si](C)(C)C(C)(C)C)ccc3ccccc23)=N1 (stereo not given)
Assayed Target: RXF 393
GI50: 18.8 µM (inactive)
//
Compound: COC(=O)CNC(=O)CCC(C)[C@H]1CCC2C3C(C[C@H](OC(C)=O)[C@@]21C)[C@@]1(C)CCC2(C[C@H]1C[C@H]3OC(C)=O)OOC1(CC[C@]3(C)C4C[C@H](OC(C)=O)[C@@]5(C)C(CC[C@@H]5C(C)CCC(=O)NCC(=O)OC)C4[C@H](OC(C)=O)C[C@@H]3C1)OO2 (stereo not given in full)
Assayed Target: RXF 393
GI50: 0.931 µM (active)
//
Compound: CNC(=O)N1CCN(C(=O)NC)CCN(C(=O)NC)CC1
Assayed Target: RXF 393
GI50: > 100 µM (inactive)
//
Compound: C=CCNC(=S)N/C=C(\C#N)C(N)=O
Assayed Target: RXF 393
GI50: > 100 µM (inactive)
//
Compound: O=C(N/N=C\c1ccc([N+](=O)[O-])cc1)Nc1cccc2ccccc12
Assayed Target: RXF 393
GI50: 11 µM (inactive)
//
Compound: CC(N/N=C(\S)N1CCCC1)c1cccnn1 (stereo not given)
Assayed Target: RXF 393
GI50: 0.315 µM (active)
//
Compound: COC(=O)C1SC[C@H]2C(=O)N(c3ccccc3)C(=O)N12 (stereo not given in full)
Assayed Target: RXF 393
GI50: > 100 µM (inactive)
//
Compound: CC(=O)NC(CCCCNCc1ccccc1)C(=O)NCc1ccccc1 (stereo not given)
Assayed Target: RXF 393
GI50: > 100 µM (inactive)
//
Compound: CN(CCNC(=S)c1cn(C)c2c1ccc1ccccc12)CCNC(=S)c1cn(C)c2c1ccc1ccccc12
Assayed Target: RXF 393
GI50: 2.05 µM (inactive)
//
Compound: O=C(O)c1ccccc1NS(=O)(=O)c1ccc([N+](=O)[O-])cc1
Assayed Target: RXF 393
GI50: > 100 µM (inactive)
//
Compound: c1ccc(/N=C2\SC3=NCCN3\C2=N/c2ccccc2)cc1
Assayed Target: RXF 393
GI50: 15.2 µM (inactive)
//
Compound: CC(=O)C(C)(C)CCC(C)(C)C(C)=O
Assayed Target: RXF 393
GI50: < 0.01 µM (active)
//
Compound: COc1ccc2c(C(=O)O)cc3ccccc3c2c1OC
Assayed Target: RXF 393
GI50: 15.2 µM (inactive)

----------
tested on: MDA-MB-231; experiment: NCI tumour cell line growth inhibition, 48 h
Calls of active or inactive are those of the source. Cut-off read from the data, not from the text of the source: active = GI50 up to about 1.1 µM and inactive = higher.
Endpoint Name: GI50

Molecule: COc1ccc(Nc2nc3cc(C(F)(F)F)ccc3nc2C(=O)O)cc1OC
Assayed Target: MDA-MB-231
Recorded Value: 29 µM (inactive)

Molecule: O=C1OC(C2OC(=O)c3cc(O)c(O)c(O)c3-c3c(O)c(O)c4oc(=O)c5c(c(O)c(O)c6oc(=O)c3c4c65)-c3c(cc(O)c(O)c3O)C(=O)OCC2O)C2OC(=O)c3c(c(O)c(O)c(O)c3[C@H]2O)-c2c1cc(O)c(O)c2O (stereo partly drawn)
Assayed Target: MDA-MB-231
Recorded Value: 13.5 µM (inactive)

Molecule: CN(CCCNC(=O)c1cn(C)c2c1Cc1ccccc1-2)CCCNC(=O)c1cn(C)c2c1Cc1ccccc1-2
Assayed Target: MDA-MB-231
Recorded Value: 13.6 µM (inactive)

Molecule: CCCNc1[nH]c(C(=O)c2ccccc2)c(N)c1C(=S)Nc1ccccc1
Assayed Target: MDA-MB-231
Recorded Value: > 100 µM (inactive)

Molecule: COC(=O)C1=C2SCc3ccc(cc3)CSC3=C(C(=O)OC)SC(=C(S2)S1)S3
Assayed Target: MDA-MB-231
Recorded Value: > 100 µM (inactive)

Molecule: Cc1ccc(-c2c(C#N)c(-c3ccc(N(C)C)cc3)c(C#N)c(=O)n2NS(=O)(=O)c2ccccc2)cc1
Assayed Target: MDA-MB-231
Recorded Value: > 100 µM (inactive)

Molecule: C=C1C(=O)[C@]23C[C@H]1C[C@@H](O)[C@H]2[C@]1(COC3=O)[C@@H](OC(C)=O)CC[C@@](C)(COC(C)=O)[C@H]1C=O
Assayed Target: MDA-MB-231
Recorded Value: > 50 µM (inactive)

Molecule: CC(=O)/C=C/C=C(\C)CC/C=C(\C)CC(C)C
Assayed Target: MDA-MB-231
Recorded Value: 40.9 µM (inactive)

Molecule: N#Cc1c(-c2ccccc2)c(/N=N/c2ccc(F)cc2)c(=O)n2c1[nH]c1ccccc12
Assayed Target: MDA-MB-231
Recorded Value: 5.21 µM (inactive)

Molecule: CCC(O)CC1OC2(CCC1C)CC1OC(=O)/C=C\C(C)(O)C(O)C(C)C(O)C(OC3CC(OC)C(O)C(C)O3)C(O)C(C)(O)CCC/C=C/C3CC(C)COC3(O)CC(O2)C1C (stereo not drawn)
Assayed Target: MDA-MB-231
Recorded Value: 12 µM (inactive)

Molecule: C(=N\N=C1NCCN1)/c1ccc2ccccc2c1
Assayed Target: MDA-MB-231
Recorded Value: 16.4 µM (inactive)

Molecule: C=CCOc1ccc(C2C(C(=O)OC)C(=O)CC(O)(c3ccccc3)C2C(=O)OC)cc1OC (stereo not drawn)
Assayed Target: MDA-MB-231
Recorded Value: 18.4 µM (inactive)

Molecule: CC(C1CCCC1=O)C1CCCC1=O (stereo not drawn)
Assayed Target: MDA-MB-231
Recorded Value: > 100 µM (inactive)

Molecule: CNC(=O)N1CCN(C(=O)NC)CCN(C(=O)NC)CC1
Assayed Target: MDA-MB-231
Recorded Value: > 100 µM (inactive)

Molecule: O=c1cc(N=P(c2ccccc2)(c2ccccc2)c2ccccc2)n(-c2ccccc2)c(=O)n1-c1ccccc1
Assayed Target: MDA-MB-231
Recorded Value: 8.18 µM (inactive)

Molecule: O=C1CC(C(O)C(O)C(O)CO)CC(=O)N1 (stereo not drawn)
Assayed Target: MDA-MB-231
Recorded Value: > 100 µM (inactive)

Molecule: COc1cc(/C=C/C=C2\CC/C(=C\C=C\c3ccc(O)c(OC)c3)C2=O)ccc1O
Assayed Target: MDA-MB-231
Recorded Value: > 59.7 µM (inactive)

Molecule: COC(=O)C1SC[C@H]2C(=O)N(c3ccccc3)C(=O)N12 (stereo partly drawn)
Assayed Target: MDA-MB-231
Recorded Value: > 100 µM (inactive)

----------
system: TK-10; test: NCI tumour cell line growth inhibition, 48 h
Active and inactive are the calls of the source. Cut-off read from the data, not from the text of the source: active = GI50 up to about 1.1 µM and inactive = higher.
Overview of reported GI50 across a group of compounds:
Endpoint Name: GI50

Compound: COc1cc2c(cc1OC)-c1c(oc3cc(OC4OC(CO)C(O)C(O)C4O)c(OC)cc3c1=O)C(O)O2 (stereo not given)
Recorded Value: > 100 µM (inactive)

Compound: Cc1cccc2c1C/C(=C\c1cccc(C)c1C(=O)O)C2=O
Recorded Value: > 100 µM (inactive)

Compound: COC(=O)/N=[N+](\[O-])C(c1ccc(Cl)cc1)c1ccc(Cl)cc1
Recorded Value: 36.1 µM (inactive)

Compound: CSc1nc(NC2OCC(OC(C)=O)C(OC(C)=O)C2OC(C)=O)c2c(OC(C)=O)c(C)c(=O)oc2n1 (stereo not given)
Recorded Value: > 100 µM (inactive)

Compound: COc1ccc2c(c1)CC1Cc3ccccc3CCN1C2 (stereo not given)
Recorded Value: 24.5 µM (inactive)

Compound: COc1cccc(-c2cc(O)c3cc(N4CCCC4)ccc3n2)c1
Recorded Value: 2.6 µM (inactive)

Compound: O=C1/C(=C/c2cccc(Br)c2)CCc2ccccc21
Recorded Value: 16.5 µM (inactive)

Compound: COc1ccc(-c2c(=O)[nH]n3c(=S)[nH]c(-c4ccccc4)nc23)cc1OC
Recorded Value: 22.6 µM (inactive)

Compound: CC(=O)/C=C/c1ccc(C2CC(C)=Nc3c(ccc4c3C(=O)c3ccccc3C4=O)N2)cc1 (stereo not given)
Recorded Value: 8.89 µM (inactive)

Compound: CC(=O)NNc1nc(C)c(C(=O)/C=C/c2ccc(Cl)cc2)s1
Recorded Value: > 100 µM (inactive)
